Assay: ATG_BRE_CIS: Attagene CIS-FACTORIAL HepG2 Assay for human Bone Morphogenetic Protein (BMP) Response Element (BRE) (AID 2282933)
Conditions: HepG2 BMP response element reporter, Attagene transcription factor profiling; actives raise or lower the signal
Calls of active or inactive are those of the source. Rule for the calls: active = hit-call score of the fitted dose curve at least 0.9, where 1 is the maximum; inactive = score below 0.9.
// one of active, inactive, no free text

Answered examples (8):
In [3]: df
Out[3]:
                                   compound  qualitativelabel
0  CCN(Cc1c(F)cccc1Cl)c1c([N+](=O)[O-])cc(C(F)(F)F)cc1[N+](=O)[O-]            active
1  COC(=O)c1ccccc1S(=O)(=O)NC(=O)Nc1nc(OC(F)F)cc(OC(F)F)n1          inactive
2                  COc1c(Cl)ccc(Cl)c1C(=O)O          inactive
3                   CCSC(=O)N(CC(C)C)CC(C)C          inactive
4  CCCCOC(=O)[C@@H](C)Oc1ccc(Oc2ccc(C(F)(F)F)cn2)cc1          inactive
5  CC1(C)C(C=C(Cl)Cl)C1C(=O)OCc1cccc(Oc2ccccc2)c1 (centres undefined)          inactive
6  CCCCC(CC)CN1C(=O)C2C3C=CC(C3)C2C1=O (centres undefined)            active
7         O=C(O)C1(C(=O)Nc2ccc(Cl)cc2Cl)CC1          inactive

Field: next compound
Prompt: Which outcome was assigned to C[C@]12C[C@H](O)[C@H]3[C@@H](CCC4=CC(=O)CC[C@@]43C)[C@@H]1CC[C@@H]2C(=O)CO in this test?
Completion: inactive

* * *

Read-out: Low-density lipoprotein receptor (LDLR), LDLR (gene 3949)
Assay: BSK_CASM3C_LDLR: BioMAP Diversity Plus: CASM3C Assay for Low-density lipoprotein receptor (LDLR) Biomarker Activity (AID 2283045);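 note: LDLR protein level on the cell surface quantified by ELISA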
Details: primary human coronary artery smooth muscle cells; actives raise or lower the signal
Active and inactive are the calls of the source. Rule for the calls: active = hit-call score of the fitted dose curve at least 0.9, where 1 is the maximum; inactive = score below 0.9.
Parameter call: string, one of active, inactive

Some solved entries appear below for comparison.
                                   compound  qualitativelabel
0                            O=C(O)c1ccccc1          inactive
1         O=C(O)C1(C(=O)Nc2ccc(Cl)cc2Cl)CC1          inactive
2  C[C@]12CC[C@@H]3c4ccc(O)cc4C[C@@H](CCCCCCCCCS(=O)CCCC(F)(F)C(F)(F)F)[C@H]3[C@@H]1CC[C@@H]2O (some centres undefined)            active
3                         CCCN(CCC)C(=O)SCC          inactive

Prompt: Answer briefly: the call reported for CCCCOCCOCCOCc1cc2c(cc1CCC)OCO2 in this assay.
Completion: inactive

Prompt: What was the test verdict on c1ccc2[nH]c(-c3cscn3)nc2c1 ?
Completion: inactive

Prompt: // outcome(item) with item = COC(=O)c1ccc(I)cc1S(=O)(=O)NC(=O)Nc1nc(C)nc(OC)n1
Completion: inactive

Prompt: Given CC(=O)[C@H]1CC[C@H]2[C@@H]3CCC4=CC(=O)CC[C@]4(C)[C@H]3CC[C@]12C , state the outcome it received in this test.
Completion: inactive

Prompt: Please share the test call associated with CCSC(=O)N(CC(C)C)CC(C)C .
Completion: inactive

From: PubChem BioAssay (EPA / NIEHS)
